Data provenance: patent US6150359A

# IC50 values compiled below
System: PDGFr (mouse PDGF-β receptor tyrosine kinase) (Mus musculus)
Construct: PCR primers are designed to amplify a fragment of DNA that codes for the intracellular tyrosine kinase domain
Sequence (P05622 599-961 limits assumed): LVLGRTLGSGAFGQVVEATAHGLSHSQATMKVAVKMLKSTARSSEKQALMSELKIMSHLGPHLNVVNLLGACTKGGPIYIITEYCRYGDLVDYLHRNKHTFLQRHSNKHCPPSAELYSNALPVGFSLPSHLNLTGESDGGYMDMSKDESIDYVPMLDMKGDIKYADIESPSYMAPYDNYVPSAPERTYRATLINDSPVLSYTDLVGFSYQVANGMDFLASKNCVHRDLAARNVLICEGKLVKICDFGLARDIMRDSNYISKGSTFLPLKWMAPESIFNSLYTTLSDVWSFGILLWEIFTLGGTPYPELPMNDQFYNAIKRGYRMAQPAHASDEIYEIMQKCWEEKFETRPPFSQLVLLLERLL
Protocol: PDGFr tyrosine kinase assay, 32P incorporation into glutamate-tyrosine copolymer
Condition Notes: 50 μM ATP
Expressed in µM, but write only the number.

Ask: Using the record for CNc1cc2c(cn1)cc(-c1c(Cl)cccc1Cl)c(=O)n2C , report its IC50.
Reply: 3.6

###

System: cdk4/cyclinD (Homo sapiens, UniProt P11802)
Sequence (P11802 whole entry, species assumed): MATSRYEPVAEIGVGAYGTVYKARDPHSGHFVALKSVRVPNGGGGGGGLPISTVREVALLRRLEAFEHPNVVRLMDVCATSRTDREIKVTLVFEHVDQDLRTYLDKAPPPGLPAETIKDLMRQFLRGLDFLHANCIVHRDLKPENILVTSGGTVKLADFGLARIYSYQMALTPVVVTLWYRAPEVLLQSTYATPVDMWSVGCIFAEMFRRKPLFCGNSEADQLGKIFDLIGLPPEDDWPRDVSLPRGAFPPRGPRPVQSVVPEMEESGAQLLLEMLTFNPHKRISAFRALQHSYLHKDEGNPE
Sequence (P24385 whole entry partner, species assumed): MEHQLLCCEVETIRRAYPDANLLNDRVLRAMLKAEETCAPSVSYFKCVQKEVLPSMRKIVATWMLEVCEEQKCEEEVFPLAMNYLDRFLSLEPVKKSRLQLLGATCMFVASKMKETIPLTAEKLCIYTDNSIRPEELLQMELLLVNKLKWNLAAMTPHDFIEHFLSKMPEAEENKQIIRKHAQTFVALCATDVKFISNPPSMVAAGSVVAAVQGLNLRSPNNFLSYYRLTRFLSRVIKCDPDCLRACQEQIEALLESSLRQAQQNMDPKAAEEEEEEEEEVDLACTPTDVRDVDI
Protocol: Cyclin-Dependent Kinase 4 (cdk4/cyclinD) Assay
Condition Notes: 25 μM ATP, retinoblastoma substrate
Property: pIC50
Please treat pIC50 as minus the base-10 logarithm of the molar concentration.

// below: answered molecules
Molecule: CCn1c(=O)ccc2cnc(Nc3ccc(OC)cc3)cc21 [Example X]
Assay Value: 5.59

Molecule: CCn1c(=O)ccc2cnc(Nc3ccc(N4CCN(C)CC4)cc3)cc21 [Example Y]
Assay Value: 6.46

Molecule: CCn1c(=O)ccc2cnc(Nc3ccc(N4CCCCC4)cc3)cc21 [Example AA]
Assay Value: 5.82

Molecule: CCn1c(=O)ccc2cnc(Nc3ccc(N4CCOCC4)cc3)cc21 [Example Z]
Assay Value: 5.87

Now look at this entry.
Ask: Suppose we examine the molecule CCn1c(=O)ccc2cnc(Nc3ccccc3)cc21 [Example W] ; what pIC50 value has been reported?
Reply: 5.38

###

System: Protein kinase C (PKC)
Protocol: Protein kinase C (PKC) assay
Condition Notes: rat brain preparation
Property: IC50

Use these answered entries as a reference point.
Molecule: Cn1c(=O)c(-c2c(Cl)cccc2Cl)cc2cnc(N)cc21 [Example A]
Assay Value: 50 µM
--
Molecule: CCN(CC)CCCCNc1cc2c(cn1)cc(-c1c(Cl)cccc1Cl)c(=O)n2C [Example F]
Assay Value: > 50 µM
--
Molecule: CCN(CC)CCOc1ccc(Nc2cc3c(cn2)cc(-c2c(Cl)cccc2Cl)c(=O)n3C)cc1 [Example P]
Assay Value: > 50 µM
--
Molecule: Cn1c(=O)c(-c2c(Cl)cccc2Cl)cc2cnc(NCCCN3CCOCC3)cc21 [Example K]
Assay Value: > 50 µM
--
Molecule: Cn1c(=O)c(-c2c(Cl)cccc2Cl)cc2cnc(Nc3ccccc3)cc21 [Example M]
Assay Value: > 50 µM

# next molecule below
Ask: Given CN1CCN(CCCNc2cc3c(cn2)cc(-c2c(Cl)cccc2Cl)c(=O)n3C)CC1 [Example H] , state its recorded IC50.
Reply: < 50 µM

###

As an illustration, consider measured IC50 for molecules on c-Src (Homo sapiens, UniProt P12931).
Sequence (P12931 whole entry, species assumed): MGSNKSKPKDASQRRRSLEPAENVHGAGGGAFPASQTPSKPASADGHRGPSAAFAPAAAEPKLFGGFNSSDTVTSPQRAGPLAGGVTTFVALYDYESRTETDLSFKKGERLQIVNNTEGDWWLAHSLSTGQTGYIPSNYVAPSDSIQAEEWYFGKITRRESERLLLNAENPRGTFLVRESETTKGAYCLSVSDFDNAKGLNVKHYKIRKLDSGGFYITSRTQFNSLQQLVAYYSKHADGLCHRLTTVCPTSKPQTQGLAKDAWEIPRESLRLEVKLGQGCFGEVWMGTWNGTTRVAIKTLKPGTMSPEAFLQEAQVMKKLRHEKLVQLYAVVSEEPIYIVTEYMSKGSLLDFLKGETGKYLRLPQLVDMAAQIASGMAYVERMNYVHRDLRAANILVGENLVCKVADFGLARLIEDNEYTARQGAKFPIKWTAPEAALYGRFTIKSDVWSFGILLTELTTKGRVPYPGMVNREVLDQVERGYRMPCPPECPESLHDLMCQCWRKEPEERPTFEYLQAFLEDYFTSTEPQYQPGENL

Smiles Repr: CCn1c(=O)ccc2cnc(Nc3ccccc3)cc21
System: c-Src (Homo sapiens, UniProt P12931)
IC50: > 50 µM

Smiles Repr: CCn1c(=O)ccc2cnc(Nc3ccc(N4CCOCC4)cc3)cc21
System: c-Src (Homo sapiens, UniProt P12931)
IC50: 31 µM

Smiles Repr: CN1CCN(c2ccc(Nc3cc4c(cn3)cc(-c3c(Cl)cccc3Cl)c(=O)n4C)cc2)CC1
System: c-Src (Homo sapiens, UniProt P12931)
IC50: 0.02 µM

Smiles Repr: CCn1c(=O)ccc2cnc(Nc3ccc(N4CCN(C)CC4)cc3)cc21
System: c-Src (Homo sapiens, UniProt P12931)
IC50: 11.4 µM

Smiles Repr: CCN(CC)CCCCCNc1cc2c(cn1)cc(-c1c(Cl)cccc1Cl)c(=O)n2C
System: c-Src (Homo sapiens, UniProt P12931)
IC50: 0.02 µM

Ask: Kindly state the measured IC50 obtained for CCN(CC)CCCCNc1cc2c(cn1)cc(-c1c(Cl)cccc1Cl)c(=O)n2C with c-Src (Homo sapiens, UniProt P12931).
Reply: 0.04 µM

Ask: Form: Entry = CN(C)c1cc2c(cn1)cc(-c1c(Cl)cccc1Cl)c(=O)n2C | System = c-Src (Homo sapiens, UniProt P12931) | IC50 = ____
Reply: > 50 µM
